# Test system: HLA-A*24
# experimentSummary: MHC binding assay, UV-ligand exchange with beta2m ELISA (exchange yield), HLA-A*24
# Parameters: species or system human
# testContext: binding to HLA-A*24, UV-ligand exchange
measuredProperty: Peptide exchange (MHC class I binding score, peptide exchange yield)

179 (TYIPVGLGRLL; listed as Homo sapiens) [compound 179]: +++ (50%-75% = +++)
301 (KFDDVTMLF; listed as Homo sapiens) [compound 301]: ++++ (>=75% = ++++)
143 (KYIFQLNEI; listed as Homo sapiens) [compound 143]: +++ (50%-75% = +++)
111 (VYVQILQKL; listed as Homo sapiens) [compound 111]: +++ (50%-75% = +++)

Consider the following items and state reported Peptide exchange (MHC class I binding score, peptide exchange yield) for each.
1. 271 (RFLMKSYSF; listed as Homo sapiens) [compound 271]
2. 218 (LYSELNKWSF; listed as Homo sapiens) [compound 218]
3. 224 (PYFFANQEF; listed as Homo sapiens) [compound 224]
4. 299 (KYQYVLNEF; listed as Homo sapiens) [compound 299]
5. 125 (VFSRDFGLLVF; listed as Homo sapiens) [compound 125]
6. 388 (IYGEKTYAF; listed as Homo sapiens) [compound 388]

Result:
++++ (>=75% = ++++)
+++ (50%-75% = +++)
+++ (50%-75% = +++)
+++ (50%-75% = +++)
+++ (50%-75% = +++)
+++ (50%-75% = +++)

# credit: patent US10130693B2
